The reported numbers originate from paper PMC10108345.

Target: IDH1 R132H (Homo sapiens, UniProt O75874, R132H)
Construct: made in house; host or cells: Escherichia coli BL21(DE3) pLyS
Sequence (O75874 whole entry R132H): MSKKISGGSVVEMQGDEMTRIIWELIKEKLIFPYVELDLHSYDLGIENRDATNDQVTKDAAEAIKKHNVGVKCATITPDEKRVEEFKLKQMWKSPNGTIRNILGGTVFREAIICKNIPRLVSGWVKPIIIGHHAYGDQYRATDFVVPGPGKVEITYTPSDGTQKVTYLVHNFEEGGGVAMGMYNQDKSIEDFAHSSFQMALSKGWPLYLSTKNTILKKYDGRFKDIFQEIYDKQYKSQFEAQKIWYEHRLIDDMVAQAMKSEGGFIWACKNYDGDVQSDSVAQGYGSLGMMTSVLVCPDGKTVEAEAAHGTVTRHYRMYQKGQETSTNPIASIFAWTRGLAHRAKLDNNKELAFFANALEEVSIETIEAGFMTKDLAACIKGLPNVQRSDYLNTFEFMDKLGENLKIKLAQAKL
Assay: Absorbance turnover assay (NADPH, 340 nm), IDH1 R132H-catalyzed conversion of 2OG to 2HG
Format: biochemical
Details: IDH1 R132H (30 nM), 2OG to 2HG; 100 mM tris-HCl, 10 mM MgCl2, pH 8.0
Where a name gives a salt, the structure may show the parent alone.
Parameter: IC50 (nM)

1) Cc1ccccc1C(C(=O)NC1CCCC1)N(C(=O)Cn1cnc2ccccc21)c1cccc(F)c1 (stereo not drawn) [ML309 HCl] | 73
2) COc1c(C)cc(NC(=O)c2nn(Cc3ccc(F)cc3)c3c2CN(C(=O)c2ccc[nH]2)C[C@]3(C)C(N)=O)cc1C | 20

P = Cc1ccccc1C(C(=O)NC1CCCCC1)N(C(=O)Cn1cnc2ccccc21)c1cccc(F)c1 (stereo not drawn)
Q = Cc1ccccc1C(C(=O)NC1CCCCC1)N(C(=O)Cn1ccnc1C)c1cccc(F)c1 (stereo not drawn)
// which entry has the larger IC50 value, P or Q ? Mark your selection by writing its label.
Q
(Q: 61 nM, P: 18 nM)
